Parameter IC50, tested on Autotaxin (Homo sapiens, UniProt Q13822), listed per item.
OBSERVABLE: IC50 (nM)

Example entries begin here.
[[record]]
molecule = "O=C(Cn1cc(-c2cnc(NCc3cccc(OC(F)(F)F)c3)nc2)nn1)N1CCc2[nH]nnc2C1"
quantitative_result = 2.9

[[record]]
molecule = "O=C(NCCN1CCN(c2cnc(NC3Cc4ccccc4C3)nc2)CC1)c1ccc2[nH]c(=O)oc2c1"
quantitative_result = 2.9


(1) NS(=O)(=O)NC1CCN(C(=O)Cc2nnc(-c3cnc(NC4Cc5ccccc5C4)nc3)o2)C1 (centres undefined)
(2) O=C(Cc1nc(-c2cnc(NC3Cc4ccccc4C3)nc2)no1)N1CCc2[nH]nnc2C1
Qu. I'm curious whether 1 or 2 has the smaller IC50 number. Which is it? Write down the label attached to your selection.
Ans. 2
